organism: Rattus norvegicus; assay: DrugMatrix - Regimen: Daily Repeat; type: toxicity, organism-based, Sprague-Dawley; set-up: regimen Daily Repeat, gender Male, age 6-8 weeks; details: in vivo, po, 0 mg/kg, 72 h, tissue Plasma, route oral GAVAGE, dose level Control, time 3 day, vehicle 100 % WATER
TEST READOUT: ALKALINE PHOSPHATASE (u/L)
# number only, unit u/L dropped from output

| MOLECULE | VALUE UNIT | NUMBER |
| --- | --- | --- |
| C=CCC1(C(C)CCC)C(=O)NC(=O)NC1=O (centres undefined) | u/L | 337 |

Q) Provide measured ALKALINE PHOSPHATASE value, entry: "CNNCc1ccc(C(=O)NC(C)C)cc1"
A) 383.83

Q) Provide measured ALKALINE PHOSPHATASE value, entry: "Clc1cccc(Cl)c1N=C1NCCN1"
A) 335

Q) Provide measured ALKALINE PHOSPHATASE value, entry: "NCCCCCC(=O)O"
A) 390.83

Q) Provide measured ALKALINE PHOSPHATASE value, entry: "C[C@H](CS)C(=O)N1CCC[C@H]1C(=O)O"
A) 363.5

Q) Provide measured ALKALINE PHOSPHATASE value, entry: "Cn1cc[nH]c1=S"
A) 368.33

Q) Provide measured ALKALINE PHOSPHATASE value, entry: "Cc1onc(-c2ccccc2Cl)c1C(=O)N[C@@H]1C(=O)N2[C@@H]1SC(C)(C)[C@@H]2C(=O)O"
A) 390.83

Q) Provide measured ALKALINE PHOSPHATASE value, entry: "C[C@H]1c2cccc(O)c2C(=O)C2=C(O)[C@]3(O)C(=O)C(C(N)=O)=C(O)[C@@H](N(C)C)[C@@H]3[C@@H](O)[C@@H]21.O"
A) 395

Q) Provide measured ALKALINE PHOSPHATASE value, entry: "CN(C)CCCN1c2ccccc2Sc2ccc(Cl)cc21"
A) 377.67

----------
organism: Rattus norvegicus; test: DrugMatrix - Regimen: Daily Repeat; type: toxicity, organism-based, Sprague-Dawley; set-up: regimen Daily Repeat, gender Male, age 6-8 weeks; details: in vivo, po, 0 mg/kg, 72 h, tissue Plasma, route oral GAVAGE, dose level Control, time 3 day, vehicle 100 % WATER
The following compounds are shown together with reported POTASSIUM values.
Express the reported value numerically, then name its unit.

These solved cases illustrate the format of a correct answer.
| MOL | RESULT |
| --- | --- |
| N[C@@H](Cc1ccc(O)c(O)c1)C(=O)O | 5.99 MEQ/L |
| C[C@H](CS)C(=O)N1CCC[C@H]1C(=O)O | 6.8 MEQ/L |
| NCCCCCC(=O)O | 6.16 MEQ/L |
| Clc1cccc(Cl)c1N=C1NCCN1 | 6.55 MEQ/L |

Turning to the following compound.
Q) Provide measured POTASSIUM value, entry: "Cc1onc(-c2ccccc2Cl)c1C(=O)N[C@@H]1C(=O)N2[C@@H]1SC(C)(C)[C@@H]2C(=O)O"
A) 6.16 MEQ/L

----------
species: Rattus norvegicus; experiment: DrugMatrix - Regimen: Daily Repeat; type: toxicity, organism-based, Sprague-Dawley; parameters: regimen Daily Repeat, gender Male, age 6-8 weeks; conditions: in vivo, po, 0 mg/kg, 120 h, tissue Plasma, route oral GAVAGE, dose level Control, time 5 day, […]
TEST READOUT: SODIUM (MEQ/L)
# number only, unit MEQ/L dropped from output

These solved cases illustrate the format of a correct answer.
| COMPOUND | NUMBER |
| --- | --- |
| C[C@@H]1CN(c2c(F)c(N)c3c(=O)c(C(=O)O)cn(C4CC4)c3c2F)C[C@H](C)N1 [SPARFLOXACIN] | 126.88 |
| C[C@H]1O[C@@H](O[C@H]2[C@@H](O)C[C@H](O[C@H]3[C@@H](O)C[C@H](O[C@H]4CC[C@@]5(C)[C@H](CC[C@@H]6[C@@H]5C[C@@H](O)[C@]5(C)[C@@H](C7=CC(=O)OC7)CC[C@]65O)C4)O[C@@H]3C)O[C@@H]2C)C[C@H](O)[C@@H]1O [DIGOXIN] | 143.65 |
| CC(C)(Oc1ccc(Cl)cc1)C(=O)O [CLOFIBRIC ACID] | 146.07 |
| Cc1oncc1C(=O)Nc1ccc(C(F)(F)F)cc1 [LEFLUNOMIDE] | 145.3 |

Turning to the following compound.
Q) Provide measured SODIUM value, entry: CC(C)C(=O)Nc1ccc([N+](=O)[O-])c(C(F)(F)F)c1 [FLUTAMIDE]
A) 143.87

----------
species: Rattus norvegicus; assay: DrugMatrix - Regimen: Daily Repeat; format: toxicity, organism-based, Sprague-Dawley; design: regimen Daily Repeat, gender Male, age 6-8 weeks; details: in vivo, po, 0 mg/kg, 72 h, tissue Blood, route oral GAVAGE, dose level Control, time 3 day, vehicle 100 % WATER
The following compounds are shown together with reported ERYTHROCYTE COUNT values.
# number only, unit x10E6/uL dropped from output

Q) Provide measured ERYTHROCYTE COUNT value, entry: "C[C@H](CS)C(=O)N1CCC[C@H]1C(=O)O"
A) 5.16

Q) Provide measured ERYTHROCYTE COUNT value, entry: CC(O)CO (stereo not given)
A) 5.71

Q) Provide measured ERYTHROCYTE COUNT value, entry: "CNNCc1ccc(C(=O)NC(C)C)cc1"
A) 5.35

Q) Provide measured ERYTHROCYTE COUNT value, entry: C=CCC1(C(C)CCC)C(=O)NC(=O)NC1=O (stereo not given)
A) 5.38

Q) Provide measured ERYTHROCYTE COUNT value, entry: "c1ccc([C@H]2CN3CCSC3=N2)cc1"
A) 5.46

Q) Provide measured ERYTHROCYTE COUNT value, entry: "Cc1onc(-c2ccccc2Cl)c1C(=O)N[C@@H]1C(=O)N2[C@@H]1SC(C)(C)[C@@H]2C(=O)O"
A) 5.71

Q) Provide measured ERYTHROCYTE COUNT value, entry: "Cn1cc[nH]c1=S"
A) 5.49

Q) Provide measured ERYTHROCYTE COUNT value, entry: "C[C@](N)(Cc1ccc(O)c(O)c1)C(=O)O"
A) 5.17

Q) Provide measured ERYTHROCYTE COUNT value, entry: "N[C@@H](Cc1ccc(O)c(O)c1)C(=O)O"
A) 5.57

----------
species: Rattus norvegicus; test: DrugMatrix - Regimen: Daily Repeat; type: toxicity, organism-based, Sprague-Dawley; set-up: regimen Daily Repeat, gender Male, age 6-8 weeks; details: in vivo, po, 0 mg/kg, 72 h, tissue Plasma, route oral GAVAGE, dose level Control, time 3 day, vehicle 100 % WATER
The following compounds are shown together with reported PHOSPHORUS values.
Express the reported value numerically, then name its unit.

| COMPOUND | PHOSPHORUS |
| --- | --- |
| CNNCc1ccc(C(=O)NC(C)C)cc1 | 9.75 mg/dL |
| C[C@H]1c2cccc(O)c2C(=O)C2=C(O)[C@]3(O)C(=O)C(C(N)=O)=C(O)[C@@H](N(C)C)[C@@H]3[C@@H](O)[C@@H]21.O | 11.95 mg/dL |
| CN(C)CCCN1c2ccccc2Sc2ccc(Cl)cc21 | 9.53 mg/dL |
| C=CCC1(C(C)CCC)C(=O)NC(=O)NC1=O (centres undefined) | 10.78 mg/dL |
| Cc1onc(-c2ccccc2Cl)c1C(=O)N[C@@H]1C(=O)N2[C@@H]1SC(C)(C)[C@@H]2C(=O)O | 11.57 mg/dL |

Q) Provide measured PHOSPHORUS value, entry: "NCCCCCC(=O)O"
A) 11.57 mg/dL

Q) Provide measured PHOSPHORUS value, entry: "Nc1c2c(nc3ccccc13)CCCC2"
A) 11.42 mg/dL

Q) Provide measured PHOSPHORUS value, entry: COc1cc2nc(N3CCN(C(=O)C4COc5ccccc5O4)CC3)nc(N)c2cc1OC (centres undefined)
A) 11.95 mg/dL

Q) Provide measured PHOSPHORUS value, entry: "Cn1cc[nH]c1=S"
A) 11.18 mg/dL

----------
organism: Rattus norvegicus; assay: DrugMatrix - Regimen: Daily Repeat; assay type: toxicity, organism-based, Sprague-Dawley; design: regimen Daily Repeat, gender Male, age 6-8 weeks; conditions: in vivo, ip, 2 mg/kg, […], tissue Blood, route intraperitoneal, dose level High, time 28 day, vehicle 100 % SALINE
TEST READOUT: ABSOLUTE MONOCYTE (cells/µL)
# number only, unit cells/µL dropped from output

Q) Provide measured ABSOLUTE MONOCYTE value, entry: LEAD (II) ACETATE
A) 320

----------
The following molecules are shown together with reported ABSOLUTE MONOCYTE values.
species on record: Rattus norvegicus; assay: DrugMatrix - Regimen: Daily Repeat; type: toxicity, organism-based, Sprague-Dawley; set-up: regimen Daily Repeat, gender Male, age 6-8 weeks; conditions: in vivo, iv, 0 mg/kg, 120 h, tissue Blood, dose level Control, time 5 day, vehicle 100 % SALINE
Starred links: 1 amine or outer side, 2 acyl side, 3 side chain; linkers in the order of their positions; H or OH if unused. Positions of bridges follow the written chain, without caps; N, C: chain ends. Non-standard residues stand in square brackets, D forms with d. Residues, ends and D or L forms follow the SMILES beside them. Chains are numbered I, II in the order given. Actinocin(9to1) = Cc1c2oc3c(C)ccc(C(=O)[*:1])c3nc-2c(C(=O)[*:2])c(N)c1=O; NMeV = CN[C@H](C(=O)O)C(C)C; Sar = CNCC(=O)O
# number only, unit CELLS/uL dropped from output

| MOLECULE | VALUE UNIT | ABSOLUTE MONOCYTE |
| --- | --- | --- |
| CC[C@]1(O)C[C@H]2CN(CCc3c([nH]c4ccccc34)[C@@](C(=O)OC)(c3cc4c(cc3OC)N(C=O)[C@H]3[C@@](O)(C(=O)OC)[C@H](OC(C)=O)[C@]5(CC)C=CCN6CC[C@]43[C@@H]65)C2)C1 | CELLS/uL | 38.83 |
| Cc1ccc(N(CC2=NCCN2)c2cccc(O)c2)cc1 | CELLS/uL | 108 |
| Cc1c2oc3c(C)ccc(C(=O)N[C@@H]4C(=O)N[C@H](C(C)C)C(=O)N5CCC[C@H]5C(=O)N(C)CC(=O)N(C)[C@@H](C(C)C)C(=O)O[C@@H]4C)c3nc-2c(C(=O)N[C@@H]2C(=O)N[C@H](C(C)C)C(=O)N3CCC[C@H]3C(=O)N(C)CC(=O)N(C)[C@@H](C(C)C)C(=O)O[C@@H]2C)c(N)c1=O [DACTINOMYCIN] (I: T[dV]P[Sar][NMeV] / II: T[dV]P[Sar][NMeV]; ester I:1-I:C, II:1-II:C; linker I:N-II:N via Actinocin(9to1)) | CELLS/uL | 279.67 |

Turning to the following molecule.
Q) Provide measured ABSOLUTE MONOCYTE value, entry: "COc1cc2c3cc1Oc1cc(ccc1O)C[C@@H]1c4c(cc(OC)c(O)c4Oc4ccc(cc4)C[C@@H]3N(C)CC2)CC[N+]1(C)C.[Cl-]"
A) 30
